For each record, write down the corresponding self-cleavage.
B1: HDV Ribozyme (parent)
chain: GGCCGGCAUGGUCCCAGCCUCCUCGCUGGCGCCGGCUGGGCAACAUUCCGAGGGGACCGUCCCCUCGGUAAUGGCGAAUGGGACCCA

# Variants of: B1
# Method Notes: self-cleavage, relative activity (ratio to wild type); higher = more cleavage; co-transcriptional
One number for each entry.

Reference set (3 entries):
[[record]]
change = "U27G C75G"
meas_value = 0.119

[[record]]
change = "G17C A45U"
meas_value = 0.107

[[record]]
change = "C62U G76C"
meas_value = 0.941


Below are 6 variants. Give each one its self-cleavage.
1. G29U G82A
2. C22U G53U
3. C14G U27C
4. C4U U37C
5. A43C C44G
6. A43C A77U

0.0282
0.61
0.727
0.772
0.458
0

Below are 7 variants. Give each one its self-cleavage.
1. C4A G73C
2. G25C C33A
3. U60C U72C
4. G31A C48U
5. C3A U79A
6. U23G C33U
7. C18U C63U

1: 0.0426; 2: 0; 3: 0.539; 4: 0.393; 5: 0.175; 6: 0.569; 7: 0.733

Below are 6 variants. Give each one its self-cleavage.
1. C4A G81U
2. G6A U9A
3. G28A G80A
4. U37G C75U
5. G39A A77C
6. C30G A83U

1: 0.128; 2: 0.942; 3: 0.188; 4: 0.0594; 5: 0.108; 6: 0.16

Every entry's value here was drawn from the RNAGym collection of RNA variant scans (doi:10.7554/elife.80360).
